# assay: DPPH free radical scavenging activity
# Type: biochemical
# applied-conditions: compounds; 0.1 mM DPPH, 30 min at 37° C., absorbance 492 nm
recorded-endpoint: IC50 (µM)
Answers are plain numbers, in µM.

In [3]: df
Out[3]:
                                   compound  reported_result
0  O=C1O[C@H]([C@@H](O)CO)C(O)=C1O [Vit. C, L-ascorbic acid]             16.4

We next turn to a different compound, shown below.
Incoming: Which IC50 value is on record for O=C(/C=C/CCc1ccc(O)c(O)c1)CCc1ccc(O)c(O)c1 [compound 2] ?
Outgoing: 22.5

All figures here come from patent US8399033B2.
